Here the recorded pIC50 is given for each entry.
- Tested on: 922993-354-T-J3-PDC complex spheroids, viability
- Assay Summary: Anticancer human tumor 922993-354-T-J3-PDC patient-derived endometrial carcinoma cell line growth inhibition [GQUAD]
- Test Context: curve of first compound; second compound 1 µM
pIC50: −log10 of the molar value.

Check out these entries, answers already filled in.
1. COc1ncnc(C2CC2)c1-c1ncc2cnn(Cc3ccc(-c4nc(C(F)(F)F)cn4C(C)C)cc3)c2n1 + Cc1cnc(CNC(=O)c2c(=O)c3ccc(N4CCCN(C)CC4)nc3n3c2sc2ccccc23)cn1 : > 7.50
2. CCc1c2c(nc3ccc(O)cc13)-c1cc3c(c(=O)n1C2)COC(=O)[C@]3(O)CC + Cc1[nH]c2ccc(F)cc2c1-c1nc2c3cccnc3c3ncccc3c2[nH]1 : 8.10
3. O=C(c1cc(Cc2n[nH]c(=O)c3ccccc23)ccc1F)N1CCN(C(=O)C2CC2)CC1 + Cc1[nH]c2ccc(F)cc2c1-c1nc2c3cccnc3c3ncccc3c2[nH]1 : < 5.00
4. CCCS(=O)(=O)Nc1ccc(F)c(C(=O)c2c[nH]c3ncc(-c4ccc(Cl)cc4)cc23)c1F + CN(C)c1ccc(Nc2c3ccc(NC(=O)CCN4CCCC4)cc3nc3cc(NC(=O)CCN4CCCC4)ccc23)cc1 : < 5.00
5. CC1COCCN1c1cc(C2(O)CC3CCC(C2)O3)c2cnn(-c3ccn[nH]3)c2n1 (stereo unspecified) + CN(C)c1ccc(Nc2c3ccc(NC(=O)CCN4CCCC4)cc3nc3cc(NC(=O)CCN4CCCC4)ccc23)cc1 : 6.11
6. COc1cccc2c1C(=O)c1c(O)c3c(c(O)c1C2=O)CC(O)(C(=O)CO)CC3OC1CC(N)C(O)C(C)O1 (stereo unspecified) + Cc1cnc(CNC(=O)c2c(=O)c3ccc(N4CCCN(C)CC4)nc3n3c2sc2ccccc23)cn1 : > 7.50
7. CC(C)(O)C1CCC(Nc2ccc3ncc(-c4cccc(C(F)(F)F)c4)n3n2)CC1 (stereo unspecified) + CN(C)c1ccc(Nc2c3ccc(NC(=O)CCN4CCCC4)cc3nc3cc(NC(=O)CCN4CCCC4)ccc23)cc1 : < 5.00
8. Cn1ncnc1[C@H]1c2n[nH]c(=O)c3cc(F)cc(c23)N[C@@H]1c1ccc(F)cc1 + Cc1cnc(CNC(=O)c2c(=O)c3ccc(N4CCCN(C)CC4)nc3n3c2sc2ccccc23)cn1 : > 9.00
9. O=C(NO)c1cnc(N2CCN(S(=O)(=O)c3ccc4ccccc4c3)CC2)nc1 + Cc1[nH]c2ccc(F)cc2c1-c1nc2c3cccnc3c3ncccc3c2[nH]1 : 6.06
10. CC1COCCN1c1cc(C2(S(C)(=N)=O)CC2)nc(-c2ccnc3[nH]ccc23)n1 (stereo unspecified) + Cc1[nH]c2ccc(F)cc2c1-c1nc2c3cccnc3c3ncccc3c2[nH]1 : < 5.00

Pending compound:
In: // query pIC50 value for entry Cc1cccc(N(C)C(=O)C2C(O)CCN2c2nc(C)cc(C(F)(F)F)c2C#N)c1 (stereo unspecified) + Cc1[nH]c2ccc(F)cc2c1-c1nc2c3cccnc3c3ncccc3c2[nH]1
Out: < 5.00

====

- System: 922993-354-T-J3-PDC complex spheroids, viability
- Assay Summary: Anticancer human tumor 922993-354-T-J3-PDC cell line growth inhibition [GQUAD];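 further: spheroids exposed to compounds for seven days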;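 on viability, T/C: 100% = DMSO vehicle control viability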
- Test Context: second compound 3.16 µM; first compound 1 µM; stronger effect = lower value
Measured Property: viability, T/C

Check out these entries, answers already filled in.
1. CC1COCCN1c1cc(-c2ccnn2C)c2ccnc(-c3ccn[nH]3)c2n1 (stereo unspecified) + Cc1cnc(CNC(=O)c2c(=O)c3ccc(N4CCCN(C)CC4)nc3n3c2sc2ccccc23)cn1 : 36.6%
2. COc1cc(C2c3cc4c(cc3C(OC3OC5COC(C)OC5C(O)C3O)C3COC(=O)C23)OCO4)cc(OC)c1O (stereo unspecified) + Cc1[nH]c2ccc(F)cc2c1-c1nc2c3cccnc3c3ncccc3c2[nH]1 : 97.6%
3. O=c1[nH]cc(F)c(=O)[nH]1 + Cc1[nH]c2ccc(F)cc2c1-c1nc2c3cccnc3c3ncccc3c2[nH]1 : 96.8%
4. CC1COCCN1c1cc(-c2ccnn2C)c2ccnc(-c3ccn[nH]3)c2n1 (stereo unspecified) + Cc1[nH]c2ccc(F)cc2c1-c1nc2c3cccnc3c3ncccc3c2[nH]1 : 25%
5. C=CC(=O)N1CCN(c2nc(=O)n(-c3c(C)ccnc3C(C)C)c3nc(-c4c(O)cccc4F)c(F)cc23)C(C)C1 (stereo unspecified) + CN(C)c1ccc(Nc2c3ccc(NC(=O)CCN4CCCC4)cc3nc3cc(NC(=O)CCN4CCCC4)ccc23)cc1 : 139%

Pending compound:
In: // query viability, T/C value for entry CCCS(=O)(=O)Nc1ccc(F)c(C(=O)c2c[nH]c3ncc(-c4ccc(Cl)cc4)cc23)c1F + Cc1[nH]c2ccc(F)cc2c1-c1nc2c3cccnc3c3ncccc3c2[nH]1
Out: 87.5%

====

Here the recorded IC50 is given for each entry.
- System: 922993-354-T-J3-PDC complex spheroids, viability
- Assay Summary: Anticancer human tumor 922993-354-T-J3-PDC cell line growth inhibition [GQUAD];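 further: spheroids exposed to compounds for seven days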
- Test Context: curve of first compound; second compound 10 µM
Entry rule: numbers only, all in nM.

1) CC(C)n1c(=O)n(C)c2cnc3cc(F)c(-c4ccc(OCCCN5CCCCC5)nc4)cc3c21 + CN(C)c1ccc(Nc2c3ccc(NC(=O)CCN4CCCC4)cc3nc3cc(NC(=O)CCN4CCCC4)ccc23)cc1 : 1820

Pending molecule:
In: // query IC50 value for entry C=CCn1c(=O)c2cnc(Nc3ccc(N4CCN(C)CC4)cc3)nc2n1-c1cccc(C(C)(C)O)n1 + CN(C)c1ccc(Nc2c3ccc(NC(=O)CCN4CCCC4)cc3nc3cc(NC(=O)CCN4CCCC4)ccc23)cc1
Out: 6530

====

- Test system: 922993-354-T-J3-PDC complex spheroids, viability
- Assay Summary: Anticancer human tumor 922993-354-T-J3-PDC cell line growth inhibition [GQUAD];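 further: spheroids exposed to compounds for seven days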
- Test Context: curve of first compound; second compound 10 µM
Here the recorded IC50 is given for each entry.

Check out these entries, answers already filled in.
1. CCCS(=O)(=O)Nc1ccc(F)c(C(=O)c2c[nH]c3ncc(-c4ccc(Cl)cc4)cc23)c1F + Cc1cnc(CNC(=O)c2c(=O)c3ccc(N4CCCN(C)CC4)nc3n3c2sc2ccccc23)cn1 : < 0.0316 µM
2. C=CC(=O)N1CCN(c2nc(=O)n(-c3c(C)ccnc3C(C)C)c3nc(-c4c(O)cccc4F)c(F)cc23)C(C)C1 (stereo not given) + Cc1[nH]c2ccc(F)cc2c1-c1nc2c3cccnc3c3ncccc3c2[nH]1 : > 10 µM
3. CC(C)n1c(=O)n(C)c2cnc3cc(F)c(-c4ccc(OCCCN5CCCCC5)nc4)cc3c21 + Cc1cnc(CNC(=O)c2c(=O)c3ccc(N4CCCN(C)CC4)nc3n3c2sc2ccccc23)cn1 : < 0.0316 µM
4. COc1cccc2c1C(=O)c1c(O)c3c(c(O)c1C2=O)CC(O)(C(=O)CO)CC3OC1CC(N)C(O)C(C)O1 (stereo not given) + Cc1[nH]c2ccc(F)cc2c1-c1nc2c3cccnc3c3ncccc3c2[nH]1 : 9.33 µM

In: // query IC50 value for entry COc1cccc2c1C(=O)c1c(O)c3c(c(O)c1C2=O)CC(O)(C(=O)CO)CC3OC1CC(N)C(O)C(C)O1 (stereo not given) + CN(C)c1ccc(Nc2c3ccc(NC(=O)CCN4CCCC4)cc3nc3cc(NC(=O)CCN4CCCC4)ccc23)cc1
Out: 6.47 µM

====

- Test system: 922993-354-T-J3-PDC complex spheroids, viability
- Assay Summary: Anticancer human tumor 922993-354-T-J3-PDC cell line growth inhibition [GQUAD];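 further: spheroids exposed to compounds for seven days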;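 on viability, T/C: 100% = DMSO vehicle control viability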
- Test Context: second compound 0.1 µM; first compound 10 µM; stronger effect = lower value
- Source text: DNA G-quadruplex Stabilizer Agents in Combinations in Complex Spheroids A high-throughput screen of multi-cell type tumor spheroids was designed to identify active combinations of DNA G-quadruplex stabilizer agents and targeted small molecules. […] Compounds. […] If the clinical Cmax for an agent had not been determined, the highest concentration tested was 10 microM. […]
Measured Property: viability, T/C (%)
Entry rule: numbers only, all in %.

1. COc1cccc2c1C(=O)c1c(O)c3c(c(O)c1C2=O)CC(O)(C(=O)CO)CC3OC1CC(N)C(O)C(C)O1 (stereo not given) + Cc1[nH]c2ccc(F)cc2c1-c1nc2c3cccnc3c3ncccc3c2[nH]1 : 56.1
2. O=C(NO)c1cnc(N2CCN(S(=O)(=O)c3ccc4ccccc4c3)CC2)nc1 + Cc1cnc(CNC(=O)c2c(=O)c3ccc(N4CCCN(C)CC4)nc3n3c2sc2ccccc23)cn1 : 1.81
3. CC(=O)O[C@H]1C(=O)[C@@]2(C)[C@H]([C@H](OC(=O)c3ccccc3)[C@]3(O)C[C@H](OC(=O)[C@H](O)[C@@H](NC(=O)c4ccccc4)c4ccccc4)C(C)=C1C3(C)C)[C@]1(OC(C)=O)CO[C@@H]1C[C@@H]2O + Cc1cnc(CNC(=O)c2c(=O)c3ccc(N4CCCN(C)CC4)nc3n3c2sc2ccccc23)cn1 : 49.5
4. CC(C)(O)C1CCC(Nc2ccc3ncc(-c4cccc(C(F)(F)F)c4)n3n2)CC1 (stereo not given) + Cc1[nH]c2ccc(F)cc2c1-c1nc2c3cccnc3c3ncccc3c2[nH]1 : 77.2

Pending molecule:
In: // query viability, T/C value for entry CCCS(=O)(=O)Nc1ccc(F)c(C(=O)c2c[nH]c3ncc(-c4ccc(Cl)cc4)cc23)c1F + Cc1[nH]c2ccc(F)cc2c1-c1nc2c3cccnc3c3ncccc3c2[nH]1
Out: 57.1
